Experiment Notes: in vitro
Settings: human, cem-ss cells
Kindly state CC50 for each of the entries shown.
Please respond with the number in µM and leave the unit unwritten.

Given item CCCCCCCCCCCCCCCCSCC(COP(=O)(O)OC[C@H]1O[C@@H](n2cc(C)c(=O)[nH]c2=O)C[C@@H]1N=[N+]=[N-])OC (stereo partly drawn) , the value recorded as its CC50 is 29.2

# CC50 of CCCCCCCCCCCCCCCCOCC(CP(=O)(O)OC[C@H]1O[C@@H](n2cc(C)c(=O)[nH]c2=O)C[C@@H]1N=[N+]=[N-])OC (stereo partly drawn) = 25.2

CC50 recorded for this compound, `Cc1cn([C@H]2C[C@H](N=[N+]=[N-])[C@@H](CO)O2)c(=O)[nH]c1=O` , is 5.6

The compound identified as CCCCCCCCCCCCCCCCCC(=O)NCC(COP(=O)(O)OC[C@H]1O[C@@H](n2cc(C)c(=O)[nH]c2=O)C[C@@H]1N=[N+]=[N-])OCC (stereo partly drawn) registered its CC50 at 53.8
